Method summary: self-splicing fitness, log relative to wild type (ln ratio); higher = more splicing; Tetrahymena group I intron in knt gene, E. coli kanamycin selection, DiMSum; sequences stand for … in CUCUCU…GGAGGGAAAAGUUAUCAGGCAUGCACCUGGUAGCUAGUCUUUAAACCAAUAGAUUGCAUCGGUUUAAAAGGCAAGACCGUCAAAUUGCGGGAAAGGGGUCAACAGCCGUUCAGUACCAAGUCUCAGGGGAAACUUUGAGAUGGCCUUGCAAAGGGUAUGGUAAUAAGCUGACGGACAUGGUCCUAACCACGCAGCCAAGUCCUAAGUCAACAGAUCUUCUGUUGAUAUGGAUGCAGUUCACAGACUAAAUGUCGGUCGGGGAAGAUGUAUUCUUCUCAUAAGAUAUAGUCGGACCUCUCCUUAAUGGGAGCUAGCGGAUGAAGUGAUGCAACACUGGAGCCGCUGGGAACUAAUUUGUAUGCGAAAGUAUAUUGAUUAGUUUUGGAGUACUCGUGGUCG;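 note: selection with 25 µg/mL kanamycin versus none on LB agar overnight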
Conditions: 30 °C
Exercise: state measured self-splicing fitness (ln) for each of the sequences provided.
Answers are plain numbers.

Please review the entries below; each comes with its answer.
1. UACAAGCAAUAUUACGACUC | -2.6
2. UUACAGCAAUAUUACGCUCU | -1.01
3. GGGAAGCAAUAUUACGCCCA | -0.527

Report self-splicing fitness (ln) for every entry below.
1. AUUGAGCAAUAUUACGUUUU
2. GGCUAGCAAUAUUACGGACU
3. UCCCAGCAAUAUUACGUGUC
4. GGCGAGCAAUAUUACGUUCG
5. GAAUAGCAAUAUUACGAAGA
6. UCCUAGCAAUAUUACGUCCA
7. GAGCAGCAAUAUUACGCUCA
8. UAUGAGCAAUAUUACGGUGG

[-3.05, -0.601, -2.9, -3.74, -2.78, -3.15, -2.14, -1.85]

Report self-splicing fitness (ln) for every entry below.
1. GUUAAGCAAUAUUACGGAGA
2. CUGCAGCAAUAUUACGCCCU
3. CAGAAGCAAUAUUACGGAAU

1. -3.29
2. -3.15
3. -3.93

Report self-splicing fitness (ln) for every entry below.
1. CUGUAGCAAUAUUACGCCUC
2. CAGAAGCAAUAUUACGUCUA

1: -2.16; 2: -0.102

###

Method summary: self-splicing fitness, log relative to wild type (ln ratio); higher = more splicing; Tetrahymena group I intron in knt gene, E. coli kanamycin selection, DiMSum; sequences stand for … in CUCUCU…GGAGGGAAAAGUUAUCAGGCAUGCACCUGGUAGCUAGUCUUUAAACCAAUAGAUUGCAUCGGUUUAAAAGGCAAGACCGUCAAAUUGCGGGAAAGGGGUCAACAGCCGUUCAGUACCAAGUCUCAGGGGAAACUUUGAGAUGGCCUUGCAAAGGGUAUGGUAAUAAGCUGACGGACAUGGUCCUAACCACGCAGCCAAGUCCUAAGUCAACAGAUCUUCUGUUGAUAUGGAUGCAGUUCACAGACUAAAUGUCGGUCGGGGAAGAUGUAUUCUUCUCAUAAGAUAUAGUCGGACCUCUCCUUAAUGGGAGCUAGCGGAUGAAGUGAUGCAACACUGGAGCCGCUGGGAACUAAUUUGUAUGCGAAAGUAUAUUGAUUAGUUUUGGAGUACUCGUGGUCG
Conditions: 37 °C
Exercise: state measured self-splicing fitness (ln) for each of the sequences provided.

1) CAGUAGCAAUAUUACGCGGU | -2.94
2) AAGUAGCAAUAUUACGACGA | 0.0374
3) CCCAAGCAAUAUUACGACAG | -2.39

Report self-splicing fitness (ln) for every entry below.
1. UAUCAGCAAUAUUACGCGAU
2. GCUCAGCAAUAUUACGAAUG
3. AUCCAGCAAUAUUACGCCGC
4. CAAAAGCAAUAUUACGGAGA
5. CGCGAGCAAUAUUACGUGAC
6. CCUCAGCAAUAUUACGCAGA
7. UGAUAGCAAUAUUACGACGU

1: -2.49; 2: -0.636; 3: -2.58; 4: -3.43; 5: -2.54; 6: -2.27; 7: -1.17

Report self-splicing fitness (ln) for every entry below.
1. ACCAAGCAAUAUUACGAGUA
2. GAGAAGCAAUAUUACGAAUC
3. ACAUAGCAAUAUUACGACAA
4. AGAAAGCAAUAUUACGUUUU
5. ACCCAGCAAUAUUACGGCAU

[-2.29, -1.12, -0.73, -3.06, 0.0474]

// data source = the supplement of paper PMC7877785
